# target: Carbonic anhydrase 1 (Homo sapiens, UniProt P00915)
# Sequence (P00915 2-261 limits assumed): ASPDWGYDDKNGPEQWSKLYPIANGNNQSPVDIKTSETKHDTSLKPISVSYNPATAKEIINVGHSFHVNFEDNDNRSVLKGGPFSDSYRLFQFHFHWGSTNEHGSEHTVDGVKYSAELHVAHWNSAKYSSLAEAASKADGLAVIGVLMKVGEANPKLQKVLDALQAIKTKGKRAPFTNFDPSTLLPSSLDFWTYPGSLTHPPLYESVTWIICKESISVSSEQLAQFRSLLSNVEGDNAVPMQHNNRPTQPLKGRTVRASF
# assay: Inhibition of CA-1 (unknown origin) at 10 uM after 15 mins by CO2 hydration assay
Listed next: entries and their corresponding inhibition.
# output: bare number, implied unit %

CCCC(C)NS(=O)(=O)c1ccc(C)cc1 (stereo not given) ... 40
Cc1ccc(S(=O)(=O)Nc2ccccc2)cc1 ... 35
Cc1ccc(S(=O)(=O)NCc2ccccc2)cc1 ... 34
Cc1ccc(S(=O)(=O)NCCCN(C)C)cc1 ... 39
CC(=O)c1ccc(S(=O)(=O)Nc2ccccc2)cc1 ... 36
O=[N+]([O-])c1ccc(S(=O)(=O)Nc2ccccc2)cc1 ... 39
Cc1ccc(S(=O)(=O)N(C)c2ccccc2)cc1 ... 39
COc1ccc(S(=O)(=O)Nc2ccccc2)cc1OC ... 39

Suppose we examine the molecule `Cc1ccc(S(=O)(=O)Nc2ccccc2-c2ccccc2)cc1` ; what inhibition value has been reported?
38

// repeat for `Cc1ccc(S(=O)(=O)NCC(=O)O)cc1` and report
39

All figures here come from ChEMBL document CHEMBL3352662.
